MEASURED_PROPERTY: Ki (mM)
Please state the figure in mM; there is no need to write the unit.

Case N=C(N)NCCCCN , Octopine dehydrogenase (OcDH) (Pecten maximus, UniProt Q9BHM6), Ki recorded as 40

----------
- MEASURED_ON: Octopine dehydrogenase (OcDH) (Pecten maximus, UniProt Q9BHM6)
- Construct: gene odh1; OcDH-His5, U-[15N] labeled
- ASSAY_TEXT: 1H-15N TROSY-HSQC NMR titration of OcDH saturated with […] NADH
- Type: binding
- Sequence (Q9BHM6 whole entry): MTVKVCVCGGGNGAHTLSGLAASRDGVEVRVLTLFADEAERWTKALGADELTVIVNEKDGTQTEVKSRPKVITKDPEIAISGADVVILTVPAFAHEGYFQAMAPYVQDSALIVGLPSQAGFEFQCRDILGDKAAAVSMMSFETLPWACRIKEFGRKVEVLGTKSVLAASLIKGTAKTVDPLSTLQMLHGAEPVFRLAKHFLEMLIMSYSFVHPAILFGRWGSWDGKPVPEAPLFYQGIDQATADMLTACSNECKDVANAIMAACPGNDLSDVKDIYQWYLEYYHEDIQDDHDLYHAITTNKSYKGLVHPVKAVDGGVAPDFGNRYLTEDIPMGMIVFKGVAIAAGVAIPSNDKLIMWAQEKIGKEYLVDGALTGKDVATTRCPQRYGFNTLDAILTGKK
MEASURED_PROPERTY: Kd

Field Kd (entry N=C(N)NCCC[C@H](N)C(=O)O [L-arginine] ) reads 4.1 mM

meta.source: paper PMC2924402
